Species on record: Felis catus
Assay: The inotropic activity was assayed in vitro in cat papillary muscle
Assay type: functional, Muscle tissue
Conditions: Felis catus, Muscle tissue; read-out: EC50
pEC50: −log10 of the molar value.
REPORTED ENDPOINT: pEC50

CC(C)(C)c1nc(O)c(C#N)c(NCc2cccnc2)n1; 4.26
Cc1nc(=O)c(C#N)c(NCc2cccnc2)[nH]1; 5.23
Cc1nc(S)c(C#N)c(NCc2cccnc2)n1; 4.85
O=C1CCC(c2ccc(-n3ccnc3)cc2)=NN1; 5.15
Cc1nc(O)c(Cl)c(NCCc2ccccc2)n1; 5.92
Cc1nc(O)c(C#N)c(NCCc2ccncc2)n1; 5.19

---

# key: entry, value: pEC50
Species: Felis catus
Assay: The inotropic activity was assayed in vitro in cat papillary muscle
Assay type: functional, Muscle tissue
Settings: Felis catus, Muscle tissue; read-out: EC50
pEC50: −log10 of the molar value.
REPORTED ENDPOINT: pEC50

Cc1nc(O)c(C#N)c(NCCc2ccccc2)n1; 4.70
CCNc1nc(C)nc(O)c1Br; 5.39
Cc1nc(O)c(C#N)c(NCc2ccncc2)n1; 5.36
Cc1nc(O)c([N+](=O)[O-])c(NCc2cccnc2)n1; 5.28
CCNc1nc(C)nc(O)c1C#N; 5.59
Cc1nc(O)c(C#N)c(NCc2ccco2)n1; 5.00
Cc1nc(O)c(Br)c(NCc2cccnc2)n1; 5.41
Cc1nc(O)c(C#N)c(NCc2ccccn2)n1; 4.37
CCCNc1nc(C)nc(O)c1C#N; 5.72
Cc1nc(O)c(C#N)c(NCCc2ccccn2)n1; 4.43
CCNc1nc(C)nc(O)c1[N+](=O)[O-]; 4.60
N#Cc1c(O)nc(Cc2ccccc2)nc1NCc1cccnc1; 4.14
Cc1[nH]c(=O)c(C#N)cc1-c1ccncc1; 5.11

---

# key: entry, value: ED50
System: Canis familiaris
Assay: Inotropic effect in the dogs with pentobarbtial-induced heart failure, id administration
Format: functional
Conditions: Canis lupus familiaris
REPORTED ENDPOINT: ED50 (mg/kg)

CCNc1nc(C)nc(O)c1Br; 0.03
Cc1[nH]c(=O)c(C#N)cc1-c1ccncc1; 0.04
Cc1nc(O)c(Br)c(NCc2cccnc2)n1; 0.022
Cc1nc(=O)c(C#N)c(NCc2cccnc2)[nH]1; 0.2
CCNc1nc(C)nc(O)c1C#N; 0.06
Cc1nc(O)c(C#N)c(NCCc2ccccc2)n1; 0.22

---

Experiment: Inhibition of bovine cardiac phosphodiesterase fraction III
Design: species or system Bos taurus
# key: entry, value: IC50
REPORTED ENDPOINT: IC50 (µM)

CCNc1nc(C)nc(O)c1Br; 38
Cc1nc(O)c(Br)c(NCc2cccnc2)n1; 15
Cc1nc(=O)c(C#N)c(NCc2cccnc2)[nH]1; 36
Cc1[nH]c(=O)c(C#N)cc1-c1ccncc1; 28

---

Organism: Felis catus
Assay: The inotropic activity was assayed in vitro in cat papillary muscle
Format: functional, Muscle tissue
Conditions: Felis catus, Muscle tissue; read-out: EC50
# key: entry, value: EC50
REPORTED ENDPOINT: EC50 (µM)

CCc1nc(O)c(C#N)c(NCc2cccnc2)n1; 5.5
Cc1nc(O)c(Br)c(NCCc2ccccc2)n1; 6.1
CSc1ccc(C(=O)c2[nH]c(=O)[nH]c2C)cc1 [ENOXIMONE]; 90
